# experimentalProtocol: TEAD-YAP interaction inhibition, primary screen, TEAD-YAP interaction inhibitor project, luminescence, HEK-TIYL cells (AID 1259422);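 further: 0% = median of test compound wells and 100% = reference inhibitor wells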
# runConditions: TEAD-Gal4/YAP UAS-luciferase luminescence, at 9.12 µM, stronger effect = higher value
Hit rate of the full screen: of about 640,000 compounds, about 9,300 (1.5%) were called active. The sample as a whole holds a higher share of actives than the screen did.
reportedMetric: inhibition (%)
// units = %; emit number, no label

IN: Supply recorded inhibition for CCN1CCCC1CNC(=O)CSCc1nc(-c2ccccc2F)oc1C (stereo unspecified) here.
OUT: -9.37

IN: Supply recorded inhibition for "Cc1nn2c(NCc3ccncc3)c3c(nc2c1-c1ccccc1)CCC3" here.
OUT: -22.7

IN: Supply recorded inhibition for "CCN1C/C(=C/c2ccc(NC(C)=O)cc2)C(=O)/C(=C/c2ccc(NC(C)=O)cc2)C1" here.
OUT: 77.6

IN: Supply recorded inhibition for "O=C(O)CCn1c(-c2ccccc2)csc1=Nc1ccccc1" here.
OUT: -48.6

IN: Supply recorded inhibition for "Cc1ccc(C)c(N(Cc2ccccc2C)S(C)(=O)=O)c1" here.
OUT: -3.99

IN: Supply recorded inhibition for c1ccc2c(c1)OCC(c1nc3ccc(-c4ccncc4)cc3[nH]1)O2 (stereo unspecified) here.
OUT: -24.1

From: PubChem BioAssay AID1259422
